Value source: paper PMC4336329

# hERG current change (%, negative = inhibition) at 10uM per entry
- target: human ether-à-go-go-related gene (hERG) potassium channel (human)
- test_protocol: primary screen, population patch clamp on CHO cells stably expressing hERG; higher = less effect of the substance
About 14,000 (4.5%) of roughly 310,000 compounds showed an effect of 50% or more. Effects have a minus sign here. The sample holds strong results, similar compounds and a random draw of the others, so the mix is not that of the screen.
measured_endpoint: hERG current change (%, negative = inhibition) at 10uM (%)

>>> quantitative_readout("CCOc1ccc(C(=O)Nc2nc(C)cc(C)n2)cc1[N+](=O)[O-]")
-49.6
>>> quantitative_readout("CC1CCCC(C)N1C(=O)CSc1nc2c(c(=O)n(C)c(=O)n2C)n1C (stereo not drawn)")
5.34
>>> quantitative_readout("Cc1cc(F)ccc1NCc1cc2c(cc1[N+](=O)[O-])OCO2.O=C(O)C(=O)O")
7.77
>>> quantitative_readout("O=C(Nc1c[nH]c(=O)[nH]c1=O)c1ccc([N+](=O)[O-])cc1")
10
>>> quantitative_readout("O=C(NN1C(=O)C2C3C=CC(C4CC34)C2C1=O)c1ccc(Br)cc1 (stereo not drawn)")
22.8
>>> quantitative_readout("CCN(CC(=O)Nc1c(F)cccc1F)C(=O)c1ccc(N2C(=O)c3ccccc3C2=O)cc1")
1.38
>>> quantitative_readout("Cc1ccc(-c2cnc(NCc3cc4c(cc3[N+](=O)[O-])OCO4)n2C)cc1C")
-48.6
>>> quantitative_readout("O=C(NN1C(=O)c2ccccc2C1=O)c1ccncc1")
10.4
>>> quantitative_readout("Cc1ccc2nc(NC(=O)C3CCN(S(=O)(=O)c4cnc[nH]4)CC3)sc2c1")
6.57

----------
- target: human ether-à-go-go-related gene (hERG) potassium channel (human);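 also: peak tail current of the secondary pulse compared with the same well before compound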
- test_protocol: primary screen, population patch clamp on CHO cells stably expressing hERG; higher = less effect of the substance
In all, about 310,000 compounds went through this assay and about 14,000 (4.5%) showed an effect of 50% or more. The effect is printed as a negative number. The sample holds strong results, similar compounds and a random draw of the others, so the mix is not that of the screen.
# hERG current change (%, negative = inhibition) at 10uM per entry
measured_endpoint: hERG current change (%, negative = inhibition) at 10uM (%)

>>> quantitative_readout("COc1ccc(S(=O)(=O)N(CC(=O)Nc2ccccc2C(=O)N2CCOCC2)c2ccc(F)cc2)cc1")
-57
>>> quantitative_readout("O=C(c1ccc(F)cc1F)N1CCN(c2ccccn2)CC1")
0.804
>>> quantitative_readout("Cc1ccc2nc(Cl)c3cc(C(=O)N(CCN(C)C)Cc4ccco4)sc3c2c1")
-39.8
>>> quantitative_readout("Oc1c(C=NCc2ccncc2)sc2ccccc12")
-38.4
>>> quantitative_readout("Cc1ccc(S(=O)(=O)N(CC(=O)Nc2ccccc2C(=O)O)c2ccc(Cl)cc2)cc1")
13.6

----------
- target: human ether-à-go-go-related gene (hERG) potassium channel (human);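 also: peak tail current of the secondary pulse compared with the same well before compound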
- test_protocol: primary screen, population patch clamp on CHO cells stably expressing hERG; higher = less effect of the substance
The whole screen tested about 310,000 compounds, of which about 14,000 (4.5%) showed an effect of 50% or more. The effect is printed as a negative number. The entries come from a sample that favours strong results as a whole. Where a SMILES comes first, the peptide text is derived from it. [ ]: non-standard residue; d: D form. The star is where a group is joined. ξ: configuration not given here. Cbz = O=C(OCc1ccccc1)*; ξV = CC(C)C(N)C(=O)O
# hERG current change (%, negative = inhibition) at 10uM per entry
measured_endpoint: hERG current change (%, negative = inhibition) at 10uM (%)

>>> quantitative_readout("COc1ccc(CN2CCn3ncc(C(=O)Nc4cccc(C)c4)c3C2=O)cc1")
6.5
>>> quantitative_readout("C#CC[N+]1(CC#Cc2ccc(C)cc2)CCCCC1.[Br-]")
4.84
>>> quantitative_readout("Cc1ccc(C#CC[N+]2(CC#Cc3ccc(C)cc3)CCCCC2)cc1.[Br-]")
-106
>>> quantitative_readout("C(#Cc1ccccc1)C[N+]1(CC#Cc2ccccc2)CCCC1.[Br-]")
-55.5
>>> quantitative_readout("COC(=O)CNC(=O)C(NC(=O)OCc1ccccc1)C(C)C (stereo not shown) (Cbz-[ξV]-Gly-OMe)")
16.1
>>> quantitative_readout("c1ccc2c(NC3CCCC3)nnc(NC3CCCC3)c2c1")
-74.9
>>> quantitative_readout("C(#Cc1ccccc1)C[N+]1(CC#Cc2ccccc2)CCCCC1.[Br-]")
-55.8
>>> quantitative_readout("C#CC[N+]1(CC#Cc2ccccc2)CCCCC1.[I-]")
2.16
>>> quantitative_readout("C=CC[N+]1(CC#Cc2ccccc2)CCCC1.[Br-]")
18.4
>>> quantitative_readout("Cc1ccc(C#CC[N+]2(C)CCCCC2)cc1.[Br-]")
14

----------
- target: human ether-à-go-go-related gene (hERG) potassium channel (human, UniProt Q12809);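 also: peak tail current of the secondary pulse compared with the same well before compound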
- Sequence (Q12809 whole entry, looked up): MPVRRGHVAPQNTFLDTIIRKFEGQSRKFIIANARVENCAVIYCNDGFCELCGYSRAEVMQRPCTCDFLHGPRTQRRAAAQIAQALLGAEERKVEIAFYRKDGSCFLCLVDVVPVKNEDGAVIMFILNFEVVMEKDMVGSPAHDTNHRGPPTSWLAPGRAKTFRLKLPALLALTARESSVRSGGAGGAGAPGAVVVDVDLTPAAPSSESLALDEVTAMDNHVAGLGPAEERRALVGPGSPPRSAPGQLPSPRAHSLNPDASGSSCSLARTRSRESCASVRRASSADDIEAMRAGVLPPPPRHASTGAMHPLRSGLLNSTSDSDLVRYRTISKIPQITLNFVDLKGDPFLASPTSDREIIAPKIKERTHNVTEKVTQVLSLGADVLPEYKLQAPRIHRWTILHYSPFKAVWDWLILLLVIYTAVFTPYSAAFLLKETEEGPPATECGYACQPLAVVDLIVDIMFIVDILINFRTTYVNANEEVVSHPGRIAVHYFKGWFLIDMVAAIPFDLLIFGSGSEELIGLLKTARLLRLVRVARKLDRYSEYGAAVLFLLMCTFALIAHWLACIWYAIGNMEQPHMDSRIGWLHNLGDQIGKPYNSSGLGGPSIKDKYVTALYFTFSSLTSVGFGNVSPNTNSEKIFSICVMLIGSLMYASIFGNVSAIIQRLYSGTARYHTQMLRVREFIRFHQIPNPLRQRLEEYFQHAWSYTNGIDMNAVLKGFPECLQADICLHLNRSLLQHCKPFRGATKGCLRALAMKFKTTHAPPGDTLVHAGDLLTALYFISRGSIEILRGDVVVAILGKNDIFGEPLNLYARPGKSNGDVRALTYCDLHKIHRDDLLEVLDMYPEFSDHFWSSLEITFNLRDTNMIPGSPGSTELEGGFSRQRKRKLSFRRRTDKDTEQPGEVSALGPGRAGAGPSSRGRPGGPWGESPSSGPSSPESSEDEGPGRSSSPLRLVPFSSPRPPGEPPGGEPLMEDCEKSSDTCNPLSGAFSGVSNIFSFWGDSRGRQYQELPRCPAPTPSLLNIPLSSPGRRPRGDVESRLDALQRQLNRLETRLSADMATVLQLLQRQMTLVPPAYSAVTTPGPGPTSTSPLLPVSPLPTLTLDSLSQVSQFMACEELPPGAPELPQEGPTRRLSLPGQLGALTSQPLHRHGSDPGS
- test_protocol: primary screen, population patch clamp on CHO cells stably expressing hERG; higher = less effect of the substance
The whole screen tested about 310,000 compounds, of which about 14,000 (4.5%) showed an effect of 50% or more. Effects have a minus sign here. Many of the other results were omitted from the sample, so strong results are more common in it than they were.
# hERG current change (%, negative = inhibition) at 10uM per entry
measured_endpoint: hERG current change (%, negative = inhibition) at 10uM (%)

>>> quantitative_readout("CCc1ccc(OCC(=O)NC(=S)Nc2ccc(S(=O)(=O)NC3CCCCC3)cc2)cc1")
19.9
>>> quantitative_readout("CS(=O)(=O)c1cccc(NC(=O)C2CCCN2S(=O)(=O)c2ccc(F)cc2)c1 (stereo not shown)")
7.77
>>> quantitative_readout("Cl.O=C(c1ccco1)N1CCN(CCCCOc2ccc(F)cc2)CC1")
-74.4
>>> quantitative_readout("COc1ccc(Cl)cc1NC(=O)CN(C)C(=O)CCC(=O)c1cc(C)sc1C")
-29.5
>>> quantitative_readout("Cl.O=C(c1ccco1)N1CCN(CCOCCOc2cccc3ccccc23)CC1")
-62.5
>>> quantitative_readout("COc1ccc(C(=O)c2ccsc2N)cc1")
3.5
>>> quantitative_readout("Cl.O=C(c1ccco1)N1CCN(CCOc2ccc(F)cc2)CC1")
-47.4
>>> quantitative_readout("Cl.O=C(c1ccco1)N1CCN(CCCCOc2cccc3ccccc23)CC1")
-62.4
>>> quantitative_readout("O=C(Cn1cnc2ccccc2c1=O)Nc1nnc(SCc2ccc(Cl)cc2)s1")
10.9
>>> quantitative_readout("S=C(Nc1ccccc1)N1CCN(C2CCCCC2)CC1")
-2.89

----------
# hERG current change (%, negative = inhibition) at 10uM per entry
- target: human ether-à-go-go-related gene (hERG) potassium channel (human);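 also: peak tail current of the secondary pulse compared with the same well before compound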
- test_protocol: primary screen, population patch clamp on CHO cells stably expressing hERG; higher = less effect of the substance
In all, about 310,000 compounds went through this assay and about 14,000 (4.5%) showed an effect of 50% or more. Effects have a minus sign here. What follows is part of a selection rich in strong results, with near analogues and random picks from the rest.
measured_endpoint: hERG current change (%, negative = inhibition) at 10uM (%)

>>> quantitative_readout("COCCCn1c(SCC(=O)N2CCOCC2)nc2ccccc2c1=O")
-5.65
>>> quantitative_readout("COc1ccccc1/C=C/CN1CCN(c2ccccc2)CC1")
-15.6
>>> quantitative_readout("CC(=O)N1CCN(c2nc3ccc([N+](=O)[O-])cc3s2)CC1")
-46.6
>>> quantitative_readout("CCCCn1c(SCC(=O)NC2CC2)nc2ccccc2c1=O")
-4.62
>>> quantitative_readout("CCOc1ccccc1N1CCN(C/C=C/c2ccc(N(C)C)cc2)CC1")
-60.1
>>> quantitative_readout("O=C(NCCc1ccccc1)C1CCN(S(=O)(=O)c2cccc3nonc23)CC1")
-10.5
>>> quantitative_readout("NC(=O)COn1c(SCC(N)=O)nc2ccccc2c1=O")
19.3
>>> quantitative_readout("CC(C)(C)c1ccc(OCC(=O)O)cc1")
17.9
>>> quantitative_readout("CCN1CCN(c2c(Cl)cccc2NC(=O)c2cc3ccccc3o2)CC1")
-23.4
>>> quantitative_readout("COc1ccc(S(=O)(=O)N2CCCCC2)cc1NC(=O)c1ccc([N+](=O)[O-])o1")
-2.81
>>> quantitative_readout("CCC(C)C(=O)Nc1nnc(SCC(=O)Nc2ccccc2F)s1 (stereo not shown)")
10.1
>>> quantitative_readout("CCCCn1c(SCC(=O)N2CCOCC2)nc2ccccc2c1=O")
-68.4
>>> quantitative_readout("O=C1CN(C(=O)CSc2nc3ccccc3c(=O)n2CCCN2CCOCC2)c2ccccc2N1")
-19.7
>>> quantitative_readout("O=C(c1ccccc1)N1CCN(C(=O)c2ccc(OC(F)(F)F)cc2)CC1")
-62.8
>>> quantitative_readout("CC(=O)N1CCN(C(=O)c2ccc(Oc3ccccc3)cc2)CC1")
19.1
>>> quantitative_readout("COc1cc(/C=C/c2ccc3cccc(O)c3n2)ccc1O")
-0.305
>>> quantitative_readout("O=C(OCc1ccccc1)C1=NNC2C(=O)N(Cc3ccccc3)C(=O)C12 (stereo not shown)")
16.2
>>> quantitative_readout("CCN1CCN(c2ccc(S(=O)(=O)N3CCCCC3)cc2NC(=O)c2cc3ccccc3o2)CC1")
-53.7
>>> quantitative_readout("O=C(NC1CCN(Cc2ccccc2)CC1)C1CCN(S(=O)(=O)c2ccccc2)CC1")
-28.8
>>> quantitative_readout("O=C(c1ccccc1)N1CCN(c2nc3ccc([N+](=O)[O-])cc3s2)CC1")
-55.4
>>> quantitative_readout("CN(Cc1ccccc1)CC(O)COc1ccc(CNCCc2cccnc2)cc1 (stereo not shown)")
-11.5
>>> quantitative_readout("CC1=NN(Cc2ccccc2)C(=O)C1")
-0.313
>>> quantitative_readout("O=C(NC1CCN(Cc2ccccc2)CC1)C1CCCN(S(=O)(=O)c2cccc3nonc23)C1 (stereo not shown)")
-55.9
>>> quantitative_readout("CCN1CCN(S(=O)(=O)c2ccc(Cl)c(C(=O)Nc3ccccc3N3CCCCC3)c2)CC1")
12.8
>>> quantitative_readout("Cn1c(N)c(C(=O)CSc2nc3ccccc3c(=O)n2CCCN2CCOCC2)c(=O)n(C)c1=O")
2.7
>>> quantitative_readout("COc1ccccc1N1CCN(C/C=C/c2ccc(N(C)C)cc2)CC1")
-53.9
>>> quantitative_readout("CCN(CCCNC(=O)C1CCN(S(=O)(=O)c2cccc3nonc23)CC1)Cc1ccccc1")
-57.2
>>> quantitative_readout("O=C(c1ccccc1F)N1CCCC(C(=O)N2CCc3ccccc3C2)C1 (stereo not shown)")
-8.64
>>> quantitative_readout("CCN1CCN(C(=S)c2ccc([N+](=O)[O-])cc2)CC1")
-36.9
>>> quantitative_readout("Nc1cccc(C(=O)Nc2ccco2)c1")
-2.33
>>> quantitative_readout("Cc1noc(C)c1S(=O)(=O)N1CCC(C(=O)NC2CCN(Cc3ccccc3)CC2)CC1")
-25
>>> quantitative_readout("CCN1CCN(c2ccc(S(=O)(=O)N3CCCCC3)cc2NC(=O)c2cccc(C)c2[N+](=O)[O-])CC1")
-28.8
>>> quantitative_readout("O=C(C1=NN[C@@H]2C(=O)N(Cc3ccccc3)C(=O)[C@H]12)c1ccc([N+](=O)[O-])cc1")
-50.2
>>> quantitative_readout("O=C(c1cc(-c2ccc(Cl)cc2Cl)on1)N1CCOCC1")
-9.72
>>> quantitative_readout("CCOc1ccccc1N1CCN(C(=O)CC(C)(C)C)CC1")
0.665
>>> quantitative_readout("O=C(c1ccccc1)N1CCN(C(=O)c2ccc([N+](=O)[O-])cc2)CC1")
-53.9
>>> quantitative_readout("O=C(CSc1nnnn1C1CC2C=CC1C2)Nc1ccc(C(=O)O)cc1 (stereo not shown)")
-6.04
>>> quantitative_readout("O=C(C1=NN[C@@H]2C(=O)N(Cc3ccccc3)C(=O)[C@H]12)c1ccc(F)cc1")
7.44
>>> quantitative_readout("O=C(c1cccs1)N1CCN(c2nc3ccc([N+](=O)[O-])cc3s2)CC1")
-7.47
>>> quantitative_readout("CCOC(=O)c1ccc(N2C(=O)c3n[nH]c(C)c3C2c2cccnc2)cc1 (stereo not shown)")
-17.2
